Assay: Half-life in Beagle dog at 1 mg/kg, iv measured upto 24 hrs by LC/MS-MS analysis
Format: ADME, organism-based, Canis lupus familiaris
Conditions: in vivo

molecular-string	scale-unit	half-life
O=C(O)[C@H](c1cc(F)ccc1[C@@H]1CCC2(CC2)CO1)N1CC[C@@H](OCCCCc2ccc3c(n2)NCCC3)C1	h	4.9

---

Biological target: Integrin alpha-V/beta-6 (Homo sapiens, UniProt P06756+P18564)
Sequence (P06756 31-889 limits assumed): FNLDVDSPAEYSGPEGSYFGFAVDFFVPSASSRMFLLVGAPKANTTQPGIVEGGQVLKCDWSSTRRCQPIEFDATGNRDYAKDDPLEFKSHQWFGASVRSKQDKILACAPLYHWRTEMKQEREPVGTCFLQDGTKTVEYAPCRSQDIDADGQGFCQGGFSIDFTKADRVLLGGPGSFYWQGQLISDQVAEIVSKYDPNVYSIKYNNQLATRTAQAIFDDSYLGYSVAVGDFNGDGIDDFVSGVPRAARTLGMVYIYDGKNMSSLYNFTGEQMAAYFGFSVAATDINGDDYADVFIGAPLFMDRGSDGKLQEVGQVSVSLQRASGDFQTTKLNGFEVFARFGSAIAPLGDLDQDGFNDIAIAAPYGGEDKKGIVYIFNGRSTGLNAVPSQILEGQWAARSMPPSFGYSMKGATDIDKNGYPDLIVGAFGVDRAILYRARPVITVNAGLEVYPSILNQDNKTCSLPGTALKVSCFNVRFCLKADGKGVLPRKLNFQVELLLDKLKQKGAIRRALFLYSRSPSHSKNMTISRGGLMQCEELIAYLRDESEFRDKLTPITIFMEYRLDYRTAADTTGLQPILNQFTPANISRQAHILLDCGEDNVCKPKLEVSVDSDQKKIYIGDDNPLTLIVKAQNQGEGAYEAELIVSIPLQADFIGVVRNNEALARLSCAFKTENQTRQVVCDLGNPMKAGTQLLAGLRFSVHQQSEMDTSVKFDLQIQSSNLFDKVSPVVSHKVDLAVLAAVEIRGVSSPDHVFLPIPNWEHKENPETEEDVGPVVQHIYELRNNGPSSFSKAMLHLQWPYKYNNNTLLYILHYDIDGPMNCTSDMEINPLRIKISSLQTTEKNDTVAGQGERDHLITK
Sequence (P06756 891-1048 limits assumed): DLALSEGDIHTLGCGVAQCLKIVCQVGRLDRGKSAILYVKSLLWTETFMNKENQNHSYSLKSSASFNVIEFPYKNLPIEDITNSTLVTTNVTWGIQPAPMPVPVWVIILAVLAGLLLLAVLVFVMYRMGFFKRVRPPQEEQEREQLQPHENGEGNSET
Sequence (P18564 22-788 limits assumed): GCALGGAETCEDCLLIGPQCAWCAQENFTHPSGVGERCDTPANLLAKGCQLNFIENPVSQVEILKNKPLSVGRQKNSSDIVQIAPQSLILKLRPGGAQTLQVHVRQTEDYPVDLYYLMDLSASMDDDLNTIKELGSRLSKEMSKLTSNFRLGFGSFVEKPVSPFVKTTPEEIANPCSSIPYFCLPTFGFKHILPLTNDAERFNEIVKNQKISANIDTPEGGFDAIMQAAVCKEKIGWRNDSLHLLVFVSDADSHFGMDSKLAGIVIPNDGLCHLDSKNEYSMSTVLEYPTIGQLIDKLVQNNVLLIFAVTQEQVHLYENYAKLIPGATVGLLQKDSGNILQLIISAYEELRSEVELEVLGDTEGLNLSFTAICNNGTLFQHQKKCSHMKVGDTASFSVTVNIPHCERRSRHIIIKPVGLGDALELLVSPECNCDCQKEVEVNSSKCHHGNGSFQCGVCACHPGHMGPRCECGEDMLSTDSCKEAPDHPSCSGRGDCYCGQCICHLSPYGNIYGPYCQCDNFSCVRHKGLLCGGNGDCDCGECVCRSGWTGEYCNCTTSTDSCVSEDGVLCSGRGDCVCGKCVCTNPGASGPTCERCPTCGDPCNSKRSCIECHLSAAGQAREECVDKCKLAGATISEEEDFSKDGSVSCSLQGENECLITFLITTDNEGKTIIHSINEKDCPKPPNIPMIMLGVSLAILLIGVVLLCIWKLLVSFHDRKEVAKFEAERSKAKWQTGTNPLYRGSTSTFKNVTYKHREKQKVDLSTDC
Experiment: Displacement of fluorescein labeled GRGDLGRL from human Integrin alphaVbeta6 preincubated for 15 mins followed by fluorescein labeled GRGDLGRL addition and measured after 1 hr by fluorescence polarization assay
Type: protein-complex assay
pIC50: −log10 of the molar value.

compound	pIC50
O=C(O)[C@H](c1cc(F)ccc1[C@H]1CCCCO1)N1CC[C@@H](OCCCCc2ccc3c(n2)NCCC3)C1	8.10
O=C(O)[C@H](c1cccc(C2CC2)c1)N1CC[C@@H](OCCCCc2ccc3c(n2)NCCC3)C1	7.89
O=C(O)[C@H](c1ccccc1C1CC1)N1CC[C@@H](n2cc(CCc3ccc4c(n3)NCCC4)cn2)C1	7.48
O=C(O)[C@H](c1ccccc1C1CC1)N1CC[C@@H](Oc2ccc(Cc3ccc4c(n3)NCCC4)cc2)C1	9.15
O=C(O)[C@H](c1cc(F)ccc1[C@@H]1CCC2(CC2)CO1)N1CC[C@@H](OCCCCc2ccc3c(n2)NCCC3)C1	8.96
O=C(O)CN1CCC(C(=O)NCCCc2ccc3c(n2)NCCC3)CC1	5.82
O=C(NCCCc1ccc2c(n1)NCCC2)[C@@H]1CCN([C@@H](C(=O)O)c2ccccc2)C1	7.03
O=C(O)[C@H](c1cc(F)ccc1C1CC1)N1CC[C@@H](OCCCCc2ccc3c(n2)NCCC3)C1	8.40
O=C(NCCCc1ccc2c(n1)NCCC2)[C@@H]1CCN([C@H](C(=O)O)c2ccccc2)C1	7.43
O=C(O)[C@H](c1cc(F)ccc1[C@@H]1CCCCO1)N1CC[C@@H](OCCCCc2ccc3c(n2)NCCC3)C1	8.80
O=C(O)[C@H](c1cc(F)ccc1C1CCOCC1)N1CC[C@@H](OCCCCc2ccc3c(n2)NCCC3)C1	8.11
O=C(O)[C@H](c1ccc(C2CC2)cc1)N1CC[C@@H](OCCCCc2ccc3c(n2)NCCC3)C1	7.92
CC1(C)CC[C@@H](c2ccccc2[C@@H](C(=O)O)N2CC[C@@H](OCCCCc3ccc4c(n3)NCCC4)C2)OC1	9.10
O=C(O)CN1CC[C@H](C(=O)NCCCc2ccc3c(n2)NCCC3)C1	5.37
O=C(NCCCc1ccc2c(n1)NCCC2)C1CCN([C@@H](C(=O)O)c2ccccc2)CC1	4.80
CC1(C)CC[C@@H](c2ccc(F)cc2[C@@H](C(=O)O)N2CC[C@@H](OCCCCc3ccc4c(n3)NCCC4)C2)OC1	9.30
O=C(O)[C@H](c1ccccc1C1CCCOC1)N1CC[C@@H](OCCCCc2ccc3c(n2)NCCC3)C1 (some centres not stated)	7.60

---

Assay: Octanol/water partition coefficient, logD of the compound
Type: physicochemical
Field 'label' (enum: 1.0 / 0.0). Set to 1.0 when logD is strictly under 2; else 0.0.

molecule	category
O=C(O)[C@H](c1cc(F)ccc1[C@H]1CCCO1)N1CC[C@@H](OCCCCc2ccc3c(n2)NCCC3)C1	1.0
O=C(O)[C@H](c1ccccc1C1CC1)N1CC[C@@H](OCCCc2ccc3c(n2)NCCC3)C1	1.0
O=C(O)[C@H](c1cc(F)ccc1C1CC1)N1CC[C@@H](OCCCCc2ccc3c(n2)NCCC3)C1	1.0
O=C(O)[C@H](c1cccc(C2CC2)c1)N1CC[C@@H](OCCCCc2ccc3c(n2)NCCC3)C1	1.0
O=C(O)[C@H](c1ccccc1C1CC1)N1CC[C@@H](n2cc(CCc3ccc4c(n3)NCCC4)cn2)C1	1.0
O=C(O)[C@H](c1cc(F)ccc1[C@@H]1CCCO1)N1CC[C@@H](OCCCCc2ccc3c(n2)NCCC3)C1	1.0
O=C(O)[C@H](c1cc(F)ccc1[C@H]1CCOC1)N1CC[C@@H](OCCCCc2ccc3c(n2)NCCC3)C1	1.0
O=C(O)[C@H](c1ccc(C2CC2)cc1)N1CC[C@@H](OCCCCc2ccc3c(n2)NCCC3)C1	1.0
O=C(O)[C@H](c1cc(F)ccc1C1CCOCC1)N1CC[C@@H](OCCCCc2ccc3c(n2)NCCC3)C1	1.0
O=C(O)CN1CC[C@@H](C(=O)NCCCc2ccc3c(n2)NCCC3)C1	1.0
O=C(O)[C@H](c1cc(F)ccc1[C@H]1CCCCO1)N1CC[C@@H](OCCCCc2ccc3c(n2)NCCC3)C1	1.0
CC1(C)CCCC(c2ccccc2[C@@H](C(=O)O)N2CC[C@@H](OCCCCc3ccc4c(n3)NCCC4)C2)O1 (some centres not stated)	0.0
O=C(O)[C@H](c1ccccc1C1CC1)N1CC[C@@H](Oc2ccc(Cc3ccc4c(n3)NCCC4)cc2)C1	0.0
O=C(O)[C@H](c1ccccc1C1CC1)N1CC[C@@H](OCCCCCc2ccc3c(n2)NCCC3)C1	1.0
O=C(O)[C@H](c1cc(F)ccc1[C@@H]1CCC2(CC2)CO1)N1CC[C@@H](OCCCCc2ccc3c(n2)NCCC3)C1	0.0
O=C(O)[C@H](c1ccccc1)N1CC[C@@H](OCCCCc2ccc3c(n2)NCCC3)C1	1.0
CC1(C)CC[C@@H](c2ccc(F)cc2[C@@H](C(=O)O)N2CC[C@@H](OCCCCc3ccc4c(n3)NCCC4)C2)OC1	0.0

---

Assay: AUCinfinity in Sprague-Dawley rat at 30 mg/kg, po measured upto 24 hrs by LC/MS-MS analysis
Assay type: ADME, organism-based
Settings: in vivo
recorded-metric: AUC(0-inf) (ng·h/mL)

molecular-string	scale-unit	observed-result
O=C(O)[C@H](c1cc(F)ccc1[C@@H]1CCC2(CC2)CO1)N1CC[C@@H](OCCCCc2ccc3c(n2)NCCC3)C1	ng·h/mL	14000

---

Target: Integrin alpha-V/beta-6 (Homo sapiens, UniProt P06756+P18564)
Test: Binding affinity to human Integrin alphaVbeta6 overexpressed in HEK293 cells incubated for 15 mins in presence of human serum by flow cytometry assay
Format: cell-based
pIC50: −log10 of the molar value.
recorded-metric: pIC50

molecular-string	observed-result
O=C(O)[C@H](c1cc(F)ccc1[C@@H]1CCCCO1)N1CC[C@@H](OCCCCc2ccc3c(n2)NCCC3)C1	7.80
CC1(C)CC[C@@H](c2ccccc2[C@@H](C(=O)O)N2CC[C@@H](OCCCCc3ccc4c(n3)NCCC4)C2)OC1	7.46
O=C(O)[C@H](c1cc(F)ccc1[C@H]1CCOC1)N1CC[C@@H](OCCCCc2ccc3c(n2)NCCC3)C1	7.05
O=C(O)[C@H](c1cc(F)ccc1C1CCOCC1)N1CC[C@@H](OCCCCc2ccc3c(n2)NCCC3)C1	6.89

---

Assay: Clearance in cynomolgus monkey at 1 mg/kg, iv measured upto 24 hrs by LC/MS-MS analysis
Type: ADME, organism-based, Macaca fascicularis
Details: in vivo

molecular-string	clearance [mL/min/kg]
O=C(O)[C@H](c1cc(F)ccc1[C@@H]1CCC2(CC2)CO1)N1CC[C@@H](OCCCCc2ccc3c(n2)NCCC3)C1	10.5

---

Target: Integrin alpha-V/beta-6 (Homo sapiens, UniProt P06756+P18564)
Test: Displacement of fluorescein labeled GRGDLGRL from human Integrin alphaVbeta6 preincubated for 15 mins followed by fluorescein labeled GRGDLGRL addition and measured after 1 hr by fluorescence polarization assay
Format: protein-complex assay
We begin with a simple list: items and their reported IC50.
recorded-metric: IC50 (nM)

molecular-string	system	scale-unit	observed-result
O=C(O)CN1CC[C@@H](C(=O)NCCCc2ccc3c(n2)NCCC3)C1	Integrin alpha-V/beta-6 (Homo sapiens, UniProt P06756+P18564)	nM	790
CC1(C)CCO[C@H](c2ccccc2[C@@H](C(=O)O)N2CC[C@@H](OCCCCc3ccc4c(n3)NCCC4)C2)C1	Integrin alpha-V/beta-6 (Homo sapiens, UniProt P06756+P18564)	nM	1.6
O=C(O)[C@H](c1ccccc1C1CC1)N1CC[C@@H](OCCCCCc2ccc3c(n2)NCCC3)C1	Integrin alpha-V/beta-6 (Homo sapiens, UniProt P06756+P18564)	nM	4.4
O=C(O)[C@H](c1ccccc1C1CC1)N1CC[C@@H](OCCCc2ccc3c(n2)NCCC3)C1	Integrin alpha-V/beta-6 (Homo sapiens, UniProt P06756+P18564)	nM	8.6
O=C(O)[C@H](c1ccccc1C1CC1)N1CC[C@@H](OCCCCc2ccc3c(n2)NCCC3)C1	Integrin alpha-V/beta-6 (Homo sapiens, UniProt P06756+P18564)	nM	4.6
O=C(NCCCc1ccc2c(n1)NCCC2)C1CCN([C@H](C(=O)O)c2ccccc2)CC1	Integrin alpha-V/beta-6 (Homo sapiens, UniProt P06756+P18564)	nM	4100
O=C(O)[C@H](c1cc(F)ccc1[C@@H]1CCOC1)N1CC[C@@H](OCCCCc2ccc3c(n2)NCCC3)C1	Integrin alpha-V/beta-6 (Homo sapiens, UniProt P06756+P18564)	nM	4.1
O=C(O)[C@H](c1ccccc1)N1CC[C@@H](OCCCCc2ccc3c(n2)NCCC3)C1	Integrin alpha-V/beta-6 (Homo sapiens, UniProt P06756+P18564)	nM	80
O=C(O)[C@H](c1cc(F)ccc1[C@@H]1CCCO1)N1CC[C@@H](OCCCCc2ccc3c(n2)NCCC3)C1	Integrin alpha-V/beta-6 (Homo sapiens, UniProt P06756+P18564)	nM	1.9
